Biological target: UGT1A10 (Homo sapiens, UniProt Q9HAW8)
Sequence (Q9HAW8 26-530): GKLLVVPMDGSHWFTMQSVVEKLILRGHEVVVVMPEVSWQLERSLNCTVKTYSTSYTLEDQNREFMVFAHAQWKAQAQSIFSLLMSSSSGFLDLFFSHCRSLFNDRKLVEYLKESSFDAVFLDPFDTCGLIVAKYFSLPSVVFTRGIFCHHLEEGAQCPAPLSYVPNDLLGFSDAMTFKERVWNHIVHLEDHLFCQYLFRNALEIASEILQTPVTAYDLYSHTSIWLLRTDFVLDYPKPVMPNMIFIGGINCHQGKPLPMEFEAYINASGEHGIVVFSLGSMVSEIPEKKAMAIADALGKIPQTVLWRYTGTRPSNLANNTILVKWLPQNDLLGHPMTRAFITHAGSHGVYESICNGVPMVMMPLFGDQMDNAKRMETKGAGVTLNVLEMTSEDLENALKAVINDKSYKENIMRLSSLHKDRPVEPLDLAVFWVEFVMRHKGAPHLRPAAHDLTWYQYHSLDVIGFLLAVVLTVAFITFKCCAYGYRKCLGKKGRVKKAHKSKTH
Assay: Inhibition of UGT1A10 (4-methylumbelliferone-O-glucuronidation)
Conditions: UGT1A10; best model by smallest AIC and SC
property_measured: Inhibitory type

Example results:
What measured Inhibitory type goes with CC(C)=CCc1cc2c(cc1O)O[C@H](c1ccc(O)cc1)CC2=O ?
Competitive

Would you kindly share the measured Inhibitory type for CC(C)=CCc1c(O)ccc2c1O[C@H](c1ccc(O)cc1)CC2=O ?
Non-competitive

Which Inhibitory type reading was recorded for the compound CC(C)=CCc1cc(-c2coc3cc(O)ccc3c2=O)ccc1O ?
Competitive

Report Inhibitory type for CC(C)=CCc1c(O)ccc(C(=O)/C=C/c2ccc(O)cc2)c1O please.
Non-competitive

---
Suppose we examine the compound COc1ccc(-c2oc3c(CC=C(C)C)c(O[C@@H]4O[C@H](CO)[C@@H](O)[C@H](O)[C@H]4O)cc(O)c3c(=O)c2O)cc1 [Icariside I, icariside I] ; what Inhibitory type value has been reported?
Competitive

Recorded Inhibitory type of CC(C)=CCC/C(C)=C/Cc1cc(-c2coc3cc(O)ccc3c2=O)ccc1O , please.
Non-competitive
